Data credit: the supplement of paper PMC4862054

tested on: CAL-51; test: normalised viability (% of control), CellTiter-Blue; higher = more viable cells (about 100 = DMSO control); conditions: incubation time: 72 h
MEASURE: normalised viability (%)
Form entry: value (%) — number only.

Example results:
# MOLECULE, UNIT_NAME, normalised viability
rows = [
    ("CC[C@H](CO)Nc1nc(NCc2ccccc2)c2ncn(C(C)C)c2n1 [Roscovitine] (300 nM)", "%", 104),
    ("C/C(=C\\c1csc(C)n1)[C@@H]1C[C@@H]2O[C@]2(C)CCC[C@H](C)[C@H](O)[C@@H](C)C(=O)C(C)(C)[C@@H](O)CC(=O)N1 [Ixabepilone] (30 nM)", "%", 103),
    ("CCNC(=O)CCC/C=C\\C[C@@H]1[C@@H](/C=C/[C@@H](O)CCc2ccccc2)[C@H](O)C[C@@H]1O [Bimatoprost] (165 nM)", "%", 116),
    ("CO[C@@H]1[C@H](N(C)C(=O)c2ccccc2)C[C@H]2O[C@]1(C)n1c3ccccc3c3c4c(c5c6ccccc6n2c5c31)C(=O)NC4 [Midostaurin] (300 nM)", "%", 28.9),
    ("CCN(CC)CCCC(C)Nc1ccnc2cc(Cl)ccc12 (stereo not drawn) [Chloroquine] (29.7 nM)", "%", 88.5),
    ("COc1c2occc2cc2ccc(=O)oc12 [Methoxsalen] (300 nM)", "%", 104),
    ("CC1(C)CCC(c2ccc(Cl)cc2)=C(CN2CCN(c3ccc(C(=O)NS(=O)(=O)c4ccc(N[C@H](CCN5CCOCC5)CSc5ccccc5)c(S(=O)(=O)C(F)(F)F)c4)cc3)CC2)C1 [Navitoclax] (300 nM)", "%", 99.9),
]

Here's the next entry for you.
Input: Return reported normalised viability; argument: C=CCn1c(=O)c2cnc(Nc3ccc(N4CCN(C)CC4)cc3)nc2n1-c1cccc(C(C)(C)O)n1 [MK1775] (300 nM)
Output: 62.9

====

Listed here: items and their measured drug sensitivity score.
tested on: CAL-85-1; assay: drug sensitivity score (DSS), CellTiter-Blue viability (DSS (AUC-based score)); higher = stronger viability inhibition; extreme values may be limits of the assay; conditions: incubation time: 72 h
// return just the number, without any unit appended

# COMPOUND, drug sensitivity score
records = [
    ("COc1ccc(S(=O)(=O)Nc2cccnc2Nc2ccc(O)cc2)cc1 [ABT-751]", 13.7),
    ("CC(C)C[C@H](NC(=O)[C@@H](COC(C)(C)C)NC(=O)[C@H](Cc1ccc(O)cc1)NC(=O)[C@H](CO)NC(=O)[C@H](Cc1c[nH]c2ccccc12)NC(=O)[C@H](Cc1cnc[nH]1)NC(=O)[C@@H]1CCC(=O)N1)C(=O)N[C@@H](CCCNC(=N)N)C(=O)N1CCC[C@H]1C(=O)NNC(N)=O [Goserelin]", 0),
    ("COc1c2occc2cc2ccc(=O)oc12 [Methoxsalen]", 0.682),
]

Here's the next entry for you.
Input: Return reported drug sensitivity score; argument: CN(Cc1cnc2nc(N)nc(N)c2n1)c1ccc(C(=O)N[C@@H](CCC(=O)O)C(=O)O)cc1 [Methotrexate]
Output: 9.69

====

Listed here: items and their measured normalised viability.
test system: MDA-MB-468; test: normalised viability (% of control), CellTiter-Blue; higher = more viable cells (about 100 = DMSO control); conditions: 1000 nM; incubation time: 72 h
Form entry: value (%) — number only.

# COMPOUND, STUDY_SYSTEM, normalised viability (%)
rows = [
    ("COc1c2occc2cc2ccc(=O)oc12", "MDA-MB-468", 112),
    ("CC(O)(CS(=O)(=O)c1ccc(F)cc1)C(=O)Nc1ccc(C#N)c(C(F)(F)F)c1 (centres undefined) [Bicalutamide]", "MDA-MB-468", 93.9),
    ("Cn1cc(C2=C(c3cn(C4CCN(Cc5ccccn5)CC4)c4ccccc34)C(=O)NC2=O)c2ccccc21", "MDA-MB-468", 107),
]

Here's the next entry for you.
Input: Lab note: need normalised viability with MDA-MB-468 for entry `CNC(=O)c1ccccc1Sc1ccc2c(/C=C/c3ccccn3)n[nH]c2c1` , please look it up.
Output: 99.4

====

Listed here: items and their measured normalised viability.
test system: DU-4475; assay: normalised viability (% of control), CellTiter-Blue; higher = more viable cells (about 100 = DMSO control); conditions: 3 nM; incubation time: 72 h
Form entry: value (%) — number only.

Example results:
# MOLECULE, DATA_VALUE
measured = [
    ("CC(=O)[C@]1(O)Cc2c(O)c3c(c(O)c2[C@@H](O[C@H]2C[C@H](N)[C@H](O)[C@H](C)O2)C1)C(=O)c1ccccc1C3=O", 90.2),
    ("Cn1cc(C2=C(c3cn(C4CCN(Cc5ccccn5)CC4)c4ccccc34)C(=O)NC2=O)c2ccccc21", 91.1),
    ("C=CCn1c(=O)c2cnc(Nc3ccc(N4CCN(C)CC4)cc3)nc2n1-c1cccc(C(C)(C)O)n1", 87.8),
    ("CC(O)(CS(=O)(=O)c1ccc(F)cc1)C(=O)Nc1ccc(C#N)c(C(F)(F)F)c1 (stereo unspecified) [Bicalutamide]", 92.2),
    ("CO[C@@]12[C@H](COC(N)=O)C3=C(C(=O)C(C)=C(N)C3=O)N1C[C@@H]1N[C@@H]12", 105),
]

Here's the next entry for you.
Input: Return reported normalised viability; argument: `CC(C)C[C@H](NC(=O)[C@@H](COC(C)(C)C)NC(=O)[C@H](Cc1ccc(O)cc1)NC(=O)[C@H](CO)NC(=O)[C@H](Cc1c[nH]c2ccccc12)NC(=O)[C@H](Cc1cnc[nH]1)NC(=O)[C@@H]1CCC(=O)N1)C(=O)N[C@@H](CCCNC(=N)N)C(=O)N1CCC[C@H]1C(=O)NNC(N)=O`
Output: 91.4

====

system: HCC1599; experiment: drug sensitivity score (DSS), CellTiter-Glo (DSS (AUC-based score)); higher = stronger drug effect (viability inhibition or cytotoxicity); extreme values may be limits of the assay; conditions: incubation time: 72 h
MEASURE: drug sensitivity score
// return just the number, without any unit appended

# COMPOUND, STUDY_SYSTEM, DATA_VALUE
rows = [
    ("Nc1ccn([C@@H]2O[C@H](CO)[C@@H](O)C2(F)F)c(=O)n1 [Gemcitabine]", "HCC1599", 12.8),
]

Here's the next entry for you.
Input: Return reported drug sensitivity score; argument: CNC(=O)c1ccccc1Sc1ccc2c(/C=C/c3ccccn3)n[nH]c2c1 [Axitinib]
Output: 2.21

====

test system: CAL-85-1; experiment: normalised viability (% of control), CellTiter-Blue; higher = more viable cells (about 100 = DMSO control); conditions: 100 nM; incubation time: 72 h
MEASURE: normalised viability (%)
Form entry: value (%) — number only.

# COMPOUND, STUDY_SYSTEM, MEASURE, DATA_VALUE
records = [
    ("CNC(=O)c1ccccc1Sc1ccc2c(/C=C/c3ccccn3)n[nH]c2c1 [Axitinib]", "CAL-85-1", "normalised viability", 104),
]

Input: Return reported normalised viability; argument: COc1c2occc2cc2ccc(=O)oc12 [Methoxsalen]
Output: 92.5

Input: Return reported normalised viability; argument: COc1cc(Nc2c(C#N)cnc3cc(OCCCN4CCN(C)CC4)c(OC)cc23)c(Cl)cc1Cl [Bosutinib]
Output: 96.8

Input: Return reported normalised viability; argument: COc1ccc(S(=O)(=O)Nc2cccnc2Nc2ccc(O)cc2)cc1 [ABT-751]
Output: 88.9

Input: Return reported normalised viability; argument: CC1(C)CCC(c2ccc(Cl)cc2)=C(CN2CCN(c3ccc(C(=O)NS(=O)(=O)c4ccc(N[C@H](CCN5CCOCC5)CSc5ccccc5)c(S(=O)(=O)C(F)(F)F)c4)cc3)CC2)C1 [Navitoclax]
Output: 85.3

Input: Return reported normalised viability; argument: CC(C)(C)NC(=O)[C@H]1CC[C@H]2[C@@H]3CC[C@H]4NC(=O)C=C[C@]4(C)[C@H]3CC[C@]12C [Finasteride]
Output: 100

Input: Return reported normalised viability; argument: CO[C@@H]1[C@H](N(C)C(=O)c2ccccc2)C[C@H]2O[C@]1(C)n1c3ccccc3c3c4c(c5c6ccccc6n2c5c31)C(=O)NC4 [Midostaurin]
Output: 103

Input: Return reported normalised viability; argument: Cn1cc(C2=C(c3cn(C4CCN(Cc5ccccn5)CC4)c4ccccc34)C(=O)NC2=O)c2ccccc21 [Enzastaurin]
Output: 85.4

Input: Return reported normalised viability; argument: CC[C@H](CO)Nc1nc(NCc2ccccc2)c2ncn(C(C)C)c2n1 [Roscovitine]
Output: 90.8

====

test system: MFM-223; test: normalised viability (% of control), CellTiter-Blue; higher = more viable cells (about 100 = DMSO control); details: 1000 nM; incubation time: 72 h
MEASURE: normalised viability (%)
Form entry: value (%) — number only.

Example results:
# COMPOUND, normalised viability (%)
records = [
    ("Cn1cc(C2=C(c3cn(C4CCN(Cc5ccccn5)CC4)c4ccccc34)C(=O)NC2=O)c2ccccc21", 65.1),
    ("COc1ccc(S(=O)(=O)Nc2cccnc2Nc2ccc(O)cc2)cc1", 62.6),
    ("C=CCN(/C=C1/C(=O)O[C@H](COC)[C@@]2(C)C1=C(O)C(=O)C1=C2[C@H](OC(C)=O)C[C@]2(C)C(=O)CC[C@@H]12)CC=C", 96.9),
    ("CC(=O)[C@]1(O)Cc2c(O)c3c(c(O)c2[C@@H](O[C@H]2C[C@H](N)[C@H](O)[C@H](C)O2)C1)C(=O)c1ccccc1C3=O", 11.5),
    ("C/C(=C\\c1csc(C)n1)[C@@H]1C[C@@H]2O[C@]2(C)CCC[C@H](C)[C@H](O)[C@@H](C)C(=O)C(C)(C)[C@@H](O)CC(=O)N1 [Ixabepilone]", 31.6),
]

Input: Return reported normalised viability; argument: `CO[C@@H]1[C@H](N(C)C(=O)c2ccccc2)C[C@H]2O[C@]1(C)n1c3ccccc3c3c4c(c5c6ccccc6n2c5c31)C(=O)NC4`
Output: 74.4
